Every entry's value here was drawn from PubChem BioAssay AID2275.

Test: BJeLR cell viability loss, primary screen, luminescence, CellTiterGlo ATP (AID 2275);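 further: higher score means fewer live cells and less ATP luminescence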
Settings: BJeLR fibroblasts viability, 48 h, HRASV12, hTERT and SV40 LT/ST transformed, concentration not given here
The campaign covered roughly 30,000 compounds. About 190 (0.63%) were called active. No stated cut-off is given here; in the data, active means viability loss activity score above about 50%; inconclusive means no clear call, values can overlap the other calls; inactive means below about 35%. The list comes from a sample in which actives are over-represented; it also holds close analogues and randomly drawn compounds.
Would you mind answering with one of these outcomes? Yes (active), No (inactive)

Please review the entries below; each comes with its answer.
compound	label
CC[C@H]1CN2CCc3cc(OC)c(OC)cc3[C@@H]2C[C@@H]1C[C@H]1NCCc2cc(OC)c(OC)cc21	Yes
C=CCSc1nnc2n1CCCN2C(=O)Nc1cccc(Cl)c1	No

Exercise: Test call for this compound, please: `Cc1ccc2nc(-c3ccc(NC(=O)C4CCC4)cc3)sc2c1`
Solution: No

Exercise: Test call for this compound, please: COC(=O)C1=C(C)N(C)C(=S)NC1c1ccccc1 (stereo not drawn)
Solution: No

Exercise: Test call for this compound, please: `Oc1ccc(CN2CCCC2)c2cccnc12`
Solution: No

Exercise: Test call for this compound, please: `Cc1cc(-c2nc(C)c(-c3nnc(SCC(=O)Nc4ccccc4)n3C)s2)no1`
Solution: No

Exercise: Test call for this compound, please: `C=CCn1c(SCc2ccc(C(=O)O)cc2)nnc1-c1cccc(OC)c1`
Solution: No

Exercise: Test call for this compound, please: `CCOC(=O)c1cccc(NC(=O)CCOc2ccccc2)c1`
Solution: No

Exercise: Test call for this compound, please: `C=CCNC(=O)/C=C/c1ccc(C(C)C)cc1`
Solution: No

Exercise: Test call for this compound, please: `COc1ccc(C(=O)NCc2cc3cc(Cl)ccc3[nH]2)cc1COc1ccccc1Cl`
Solution: No

Exercise: Test call for this compound, please: `COCC(=O)NCc1nn(-c2ccccc2)nc1C`
Solution: No

Exercise: Test call for this compound, please: `CC(C)NC(=O)Cn1c2ccccc2c2cn[nH]c(=O)c21`
Solution: No

Exercise: Test call for this compound, please: C=CCC(c1cc(Cl)ccc1N)S(=O)(=O)c1ccc(C)cc1 (stereo not drawn)
Solution: No

Exercise: Test call for this compound, please: `Cc1cc(Nc2ccc(Cl)cc2)c2ccccc2n1`
Solution: No

Exercise: Test call for this compound, please: `CSc1nc(COc2ccc(C(C)(C)C)cc2)nc(-n2cccc2)c1C#N`
Solution: No

Exercise: Test call for this compound, please: `CCOC(=O)c1c(C)n(C)c2ccccc12`
Solution: No

---

Test: BJeLR cell viability loss, primary screen, luminescence, CellTiterGlo ATP (AID 2275);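 further: higher score means fewer live cells and less ATP luminescence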
Settings: BJeLR fibroblasts viability, 48 h, stronger effect = higher value, HRASV12, hTERT and SV40 LT/ST transformed, concentration not given here
Out of some 30,000 compounds screened, about 190 (0.63%) were called active. This is one part of a sample in which actives are shown more often than they occur.
Overview of reported viability loss activity score across a group of compounds:
Report the figure in % without appending any unit label.

Exercise: Find the recorded viability loss activity score belonging to O=C1C2=C(Nc3ccccc3S(=O)(=O)C2c2ccc(Cl)cc2)c2ccccc21 (configuration not stated) and report it.
Solution: 0.962

Exercise: Find the recorded viability loss activity score belonging to `O=C(Nc1ccccc1C(=O)O)c1ccc(CN2CCOCC2)cc1` and report it.
Solution: 8.6

Exercise: Find the recorded viability loss activity score belonging to `CN(Cc1ccccc1)C(=O)c1cc(-c2ccc(Cl)cc2)on1` and report it.
Solution: 3.08

Exercise: Find the recorded viability loss activity score belonging to CN1c2ccccc2C(C)(C)C12Cc1cc(NS(=O)(=O)c3ccc(Cl)cc3)ccc1O2 (configuration not stated) and report it.
Solution: 0.312

---

Assay: BJeLR cell viability loss, primary screen, luminescence, CellTiterGlo ATP (AID 2275);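 further: higher score means fewer live cells and less ATP luminescence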
Conditions: BJeLR fibroblasts viability, 48 h, stronger effect = higher value, HRASV12, hTERT and SV40 LT/ST transformed, concentration not given here
Among all 30,000 compounds or so, about 190 (0.63%) were called active. Many of the other results were omitted from the sample, so actives are more common in it than they were.
measured-parameter: viability loss activity score (%)
Report the figure in % without appending any unit label.

molecule	viability loss activity score / %
Cc1c(C(=O)OC2CCCC2)[nH]c2c1C(=O)CCC2	-0.399
O=C(NCCCN1CCCC1)c1cc(-c2ccncc2)nc2ccccc12	3.5
Cc1ccc(NC(=S)Nc2ccc(C)cc2)cc1	2.21

Exercise: Find the recorded viability loss activity score belonging to `O=C1/C(=C/c2cccc(Br)c2)SC(=S)N1CC(=O)N1CCCc2ccccc21` and report it.
Solution: -6.26

Exercise: Find the recorded viability loss activity score belonging to CC(=O)NN1C(=O)c2ccccc2NC1c1ccccc1 (stereo not drawn) and report it.
Solution: -1.21

Exercise: Find the recorded viability loss activity score belonging to `CCCCn1c(-c2ccc(Br)cc2)nc2ccccc21` and report it.
Solution: -1.15

Exercise: Find the recorded viability loss activity score belonging to `CCCn1cc(SCC(=O)N2CCc3ccccc32)c2ccccc21` and report it.
Solution: 1.29

Exercise: Find the recorded viability loss activity score belonging to `Cc1cc(C(C)(C)C)cc(S(=O)(=O)Nc2ccc(C(=O)N3CCC(C)CC3)cc2)c1C` and report it.
Solution: -6.82
